- target: T1, human Claudin18.2 (human)
- T1 construct: also called CLDN18.2
- measurement_notes: FACS, Claudin18.2-HEK293 cells
measured_property: EC50 (nM)
Number only, in nM; omit the unit.

INSERT INTO measurements (binder, measured_property, unit_descriptor, value_measured) VALUES
  ('chimeric 234B9D4 (antibody, human IgG1, kappa, V domains shown, chimeric, human IgG1/kappa constant regions) VH: EIQLQQSGPDLMKPGSSVKISCTASGYSFTSYYIHWVKQSHGKTLEWIGYIDPFNGGTRYNQKFEGKAALTVDKSSTTAYMHLTSLTSDDSAVYYCASLRFFTYWGQGTLVTVSA VL: DIVMTQSPSSLTVTAGEKVTMTCKSSQSLLNSGNQENYLTWYQQKPGQPPKLLISRASTRQSGVPDRFTGSGSGTDFTLTISSVQAEDLAVYYCQNDYSYPLTFGAGTKLELKR', 'EC50', 'nM', 2.6);

Now, please, on to the next binder.
stdin: Please give the documented EC50 of chimeric 273C10E5 (antibody, human IgG1, kappa, V domains shown, chimeric, human IgG1/kappa constant regions) VH: QVQLQQSGAELVKPGASVKLSCKASGYTFTSFGINWLRQRPEQGLEWIGWIFPGDGNSKYNENFKGKATLTTDKSSSTAYMQVTRLTSEDSAVYFCARFYYGNSFANWGQGTLVTVSA VL: DIVMTQSPSSLTVTAGEKVTMSCKSSQSLLNSGNQKNYLTWYQQKPGQPPKLLIYWAATRESGVPDRFAGSGSGTDFTLTISSVQAEDLAVYYCQNDYFYPFTFGAGTKLELKR
stdout: 1.01
